- test-name: label from the status in PepcDB records;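 also: failed if final PepcDB status was selected cloned or expressed and not failed if soluble or beyond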
observation-type: protein production

query-sequence: MIRNVLKLLALLADEIVIVALVIIFLRRVSARLAVIVGGALILFNLFLVKLLWGTLKKKAEVGAEALIGEKAVVVEDLNPVGLVKVKNELWTAECISGTARRGEKVRIVQVKGAKLLVEKDDNAGKFL
data-value: failed
--
query-sequence: MGKDLAECYLGLGSTFRTLGEYRKAEAVLANGVKQFPNHQALRVFYAMVLYNLGRYEQGVELLLKIIAETSDDETIQSYKQAILFYADKLLEHHHHHH
data-value: failed
--
query-sequence: MAVKHASAPKAYINITGLGFAKLTKEGAELKYSDITKTRGLQKIGVETGGELKTAYADGGPIESGNTDGEGKISLQMHAFPKEIRKIVFNEDYDEDGVYEEKQGKQNNYVAVWFRQERRDGTFRTVLLPKVMFTNPKIDGETAEKDWDFSSEEVEGEALFPLVDNKKSVRKYIFDSANMTNHGGDGEKGEEAFLKKILGEEYTGNVTEDNEETLLEHHHHHH
data-value: not failed
--
query-sequence: MIGLSKSRGALSMENQKMPEYETIRAAVAGEKWAVEKVVDCYKDEIDRLSTVAVRQPDGSTKQEINEDMRQSITKKLIEALPQFPLEEMEKGNVR
data-value: failed
--
query-sequence: MSSSEIQTKNSEVQVKEMVAHKWDLASETFDTHAGHGIQTQKERDAWKRAFLKVFPGKSLKILDVGCGTGELSLLFAEMGHEVAGIDISGQMLKIAKAKAEALGADITFREGDAENPPFDTSSYDIVFSRHLLWTLPNPKVAVENWNRILRKNGKVVIVDGVWDSGTLGSRARKNAGALLTLLLERKDPRKGHSDYSDELKAQLPHFGGAPLEKVNEYLSNSGFGNIQIFDLKEVRDAQKEKMPLGERVVRSYQYYLICGRK
data-value: failed
--
query-sequence: MTTLTAQQIACVYAWLAQLFSRELDDEQLTQIASAQMAEWFSLLKNEPPLTAAVNELENRIATLTVRDDARLELAADFCGLFLMTDKQAALPYASAYKQDEQEIKRLLVEAGMETSGNFNEPADHLAIYLELLSHLHFSLGEGTVPARRIDSLRQKTLTALWQWLPEFVARCRQYDSFGFYAALSQLLLVLVECDHQNR
data-value: failed
--
query-sequence: MSYLGGYGLIYLVTIVGYFILASFLGSFQLSSDLFNFEFYSSLSGISALMVWAFWLFLIYLNIILVVRRLHDLNKSGWMGLLLFIPVVQFFFMLYLLLASGTAGTNQYGPVRPSTFIEKLMAWLILIAILISLISTVGFFYYFSGTDTIQTPTQILQKGTEYF
data-value: failed
--
query-sequence: MSLTGNAQAATIADPSTLVVDTVGPVLTIGLNRPKKRNALNDGLMAALKDCLTDIPDQIRAVVIHGIGDHFSAGLDLSELRERDATEGLVHSQTWHRVFDKIQYCRVPVIAALKGAVIGGGLELACAAHIRVAEASAYYALPEGSRGIFVGGGGSVRLPRLIGVARMADMMLTGRVYSAAEGVVHGFSQYLIENGSAYDKALELGNRVAQNAPLTNFAVLQALPMIAEANPQTGLLMESLMATVAQSDQEAKTRIRAFLDHKTAKVREGHHHHHH
data-value: not failed

====

- test-name: label from the status in PepcDB records

query-sequence: MGGIYRLSLKSTEATAERLSCDTRCNYEDRDLAYSPDGRWLAIARRFSNISEDIFIRDLASAHEKRLTQGLEDIRGLSWTPDSQALVFATEDSGSSNGFTLDINTAQIRSLDVEGMSYPSSVSAEGELVYHQYHRQFQMAYFSLGDKVPGSLFPLLYSGVSHRNPDYSPEAKRIVFVSSETG
protein production: failed
//
query-sequence: MITHISPAGSMDLLSQLEVERLKKTASSDLYQLYRNCTLAVLNSGSHTDNSKELLDKHQSFDVNVVRRERGIKLELTDPPEHAFVDGEIIKGIQEHLFSVLRDIVYVNMHLADSQRLNLTNPTHITNLVFGILRNAGALTPGIEPNLVVCWGGHSINGVEYQYTREVGNELGLRELNICTGCGPGAMEGPMKGAAIGHAKQRYTEQRYLGLTEPSIIAA
protein production: failed

====

- test-name: label from the status in PepcDB records

query-sequence: HRWITRPKFTHFDLHTLNWDLCLTQANHKSNLALEMLKMLLDSLPETVEKIQTALGQNDQATMLSTIHKLHGASCYCGVPTTQRLCQEIESALKRQTPVEDLEPEILELLDELTKVESAVKQVLSQLSAE
protein production: not failed

query-sequence: MSLTNSSKSFTKFMAASAVFTMGFLSVPTAGAEQTNQIANKPQAIQWHTNLTNERFTTIAHRGASGYAPEHTFQAYDKSHNELKASYIEIDLQRTKDGHLVAMHDETVNRTTNGHGKVEDYTLDELKQLDAGSWFNKKYPKYARASYKNAKVPTLDEILERYGPNANYYIETKSPDVYPGMEEQLLASLKKHHLLNNNKLKNGHVMIQSFSDESLKKIHRQNKHVPLVKLVDKGELQQFNDQRLKEIRSYAIGLGPDYTDLTEQNTHHLKDLGFIVHPYTVNEKADMLRLNKYGVDGVFTNFADKYKEVIKEGHHHHHH
protein production: not failed

====

- test-name: label from the status in PepcDB records
observation-type: protein production

query-sequence: MNKPATIDFATATAIQIPAATAQAEALHDLVPGEARDSLLAVHDVLRRELPQGRLAIYEAGGGSCSVLPPELLSRSQVTVVDIDEDQVRNNTYADEAIRGDVQTYRFGGETFDLVICYNVIEHLPNVDAALLNFRDALKRGGMILIGAPNPRSLSGVVTKYSPHWFHVWFYRHIRGIRDAGLPGEPPFPTFFHPLVTLPRLEAFAAANGLDMTYRREVESPRYPEMRRRKPLFAALVDAGAAMLNAVLPRGTDVRRGDYHVILRKS
data-value: failed
--
query-sequence: MAQQFKDYFSEKSDVYRSYRPGYPTELFAWLAGLPARRDAALDCGCGTGQASVALAEHFARVYAVDPSAGQIKSATPHKRVEYRVAPAEETGLPDASVDLVIAAQALHWFDFSRFYAEVRRVARGGAVFAAFTYGLLAIDDEIDRIIGRFYRDVIGPYWPPERAHVDAGYRTLPFPFAEIETPTFAMKAEWDLGHLMGYFETWSAVKEYRRLRGDDPLELVAGDLATAWGDPALVRQVSWPLVLRAGRIE
data-value: failed
--
query-sequence: MNFQRFKAIVKKEVIQLKRDRASFGIAIMMPIVMIFLFGYAVNTELSNISMTVLDQSNSIESRELIQSFQNTGYFKVVSRVKSIEEVREKMDKGKVHAAIVIPPDFSNKLQMREESNVQLLVDGSDPTTARTAFSSGVVSGQQYGMKKLQGFGEKTSSKFQEGGVNVNTRVLYNPNLRNQNFTIPGLIGLIMQNITILLTAFALVRERERGTIEQLTVSPLKAGEIILGKLVPYIFIGYIDFLFSLVLGIKWFNVPINGSIPLLLLLGFAFVICALAIGILISTISKTQLQAMQLTILVLLPSILLSGFVFPREAMPKVIQLIGNVLPLTYFLNILRGIITKGVGVQYLSRDIAAMCCLAVILLTLSIVRFRAKPYNS
data-value: failed
--
query-sequence: LEPRKKAEEALRKSEERFAKAFRMAPVPSLVLYGDDLQALDINQAFSETFGYQAEELLGESTVACGLWQDGGAERLGELLAQSGSVRNVQLRLQHKDRNGLDCLVSAEAVSLNEQDCVLVALLDIS
data-value: not failed
--
query-sequence: MLYFDHWTKVPADIWRWPNFSPEEIACRSTGKVGIDPQAMDKLQALRDRLGAPLMLNSAYRSPEHNRAEGGAPASEHLKARAFDVSMINHDPAEFEAAARAVGFTGFGFYRRNNFIHVDIGPAREWGNRWFDRVPHGAPLRPAPRFSPPPKLRPETLAEDRGARGTALGAGGGVALIGALGNVVGDLNPTAQAIAFGGAIVLAASLAYLIRDKIREWA
data-value: failed
--
query-sequence: MGVFDKFLDIMKLNDDEYDDDDFYDDDFEDDDFDEKPHRSIFGNKKSRSDDFDDFDMDEDKHLAPSSGNKVTPMRQPAARRGVNMEVCVVKPTSVDDSREITETLLAGRTVILNLEGMDLEIAQRIIDFISGATFAISGNLQKISNYIFLVTPTNVDILEHHHHHH
data-value: not failed
--
query-sequence: LRKMIALIHKDYAKNLRLETLASVFNYNRAYLGKLFKNYTGEYFNTYLDKVRIENGKRLLQKGYKVYEVAEKIGYANVDYFHRKFKKYVGVSPSTFRKRHDHLQVYHD
data-value: failed
--
query-sequence: MRSPYLIGVFLAAGKSRRMGQNKLALPLKGENIGSLSLKTALSSRLDHVLVVERTEHASLEWIGAPYHAPPFQKRWSLHVCQDAEKGQGHSVSSGVRKAESMGADGIVILLADQPQLSVDHLNALVALAPESFAVSSFLGAFTPPIYFSSTCFPYVKGLKGDEGARRLLKSGQLGAGAVLEAKDSGELDDIDTPRGILEHHHHHH
data-value: not failed
--
query-sequence: MKFHVIDRENWNREQYFEHYLELKCTFSMTVNVDITLLIKKVHQKGIKFYPTFIYIISRIINKHKEFRTCFNDEGVLGYWEEMIPSYTIFHKDDKSFSSIWTDYSSDFRIFYKNYEEDMRCYASVHGLLTKENIPPNIFPISGIPWTSFTGFNLNINNDGDFLLPIITCGKYFNEENKIMLPVSLQVHHSVCDGYHVSRFIEDLQELSNSCNEWLK
data-value: failed
--
query-sequence: MKKIFVIITTLLAVAIIIGSIITVVFSQRQAQTFKIQQQQFVKKPIPTLFLHGFGGSANSEKFMVKQAEKRGVTKDIITAYVSKDGAVTFKGKLRKDAVNPIVKIELENNRQGYLDKNAAWFKNVLTKLQSEYNFDKFNFVGHSMGNLTFAQYMMTYGNDKSLPQLNKQVNIAGTFNGVLNMNEDVNEITVDKDGKPSRMNQPYQQLRVLKDIYKGKGIEVLNIYGDLKDGTHSDGRVSNSSSKSLKYLLGNSPKSYRESKYEGEPAQHSQLHENENVANELIDFLWKK
data-value: failed
--
query-sequence: MSITLITAAPGAGKTIFAVWNIIKPAVEADRVVYTAGIPELKLPAISLSYSQVKRWADRELVEVENPSGIPIPDDEKPSRLQNITEGALIVIDEVQYLWPASGSREPGEDIKYLTKHRHHGLEFVLITQAPQLIHKNVLAVVDKHIHMLSDWHGRKRYEWPEYCATVRATSSKLKAVSQRYELPKEAYGLYRSASMHI
data-value: failed
--
query-sequence: MQVFLQGLLFGIVYIAPIGMQNLFVVSTAIEQPLQRALRVALIVIAFDTSLSLACFYGVGRLLQTTPWLELGVLLIGSLLVFYIGWNLLRKKATAMGTLDADFSYKAAILTAFSVAWLNPQALIDGSVLLAAFRVSIPAALTHFFMLGVILASIIWFIGLTSLISKFKHLMQPRVLLWINRICGGIIILYGVQLLATFITKI
data-value: failed
--
query-sequence: MTVGTYAELASVFAALSDETRWEILTELGRADQSASSLATRLPVSRQAIAKHLNALQACGLVESVKVGREIRYRALGAELNKTARTLERIGAEWDRRLAAIKQIAESMEE
data-value: not failed
